Biological target: NADPH oxidase 5 (Homo sapiens) (UniProt Q96PH1)
Sequence (Q96PH1 whole entry, looked up): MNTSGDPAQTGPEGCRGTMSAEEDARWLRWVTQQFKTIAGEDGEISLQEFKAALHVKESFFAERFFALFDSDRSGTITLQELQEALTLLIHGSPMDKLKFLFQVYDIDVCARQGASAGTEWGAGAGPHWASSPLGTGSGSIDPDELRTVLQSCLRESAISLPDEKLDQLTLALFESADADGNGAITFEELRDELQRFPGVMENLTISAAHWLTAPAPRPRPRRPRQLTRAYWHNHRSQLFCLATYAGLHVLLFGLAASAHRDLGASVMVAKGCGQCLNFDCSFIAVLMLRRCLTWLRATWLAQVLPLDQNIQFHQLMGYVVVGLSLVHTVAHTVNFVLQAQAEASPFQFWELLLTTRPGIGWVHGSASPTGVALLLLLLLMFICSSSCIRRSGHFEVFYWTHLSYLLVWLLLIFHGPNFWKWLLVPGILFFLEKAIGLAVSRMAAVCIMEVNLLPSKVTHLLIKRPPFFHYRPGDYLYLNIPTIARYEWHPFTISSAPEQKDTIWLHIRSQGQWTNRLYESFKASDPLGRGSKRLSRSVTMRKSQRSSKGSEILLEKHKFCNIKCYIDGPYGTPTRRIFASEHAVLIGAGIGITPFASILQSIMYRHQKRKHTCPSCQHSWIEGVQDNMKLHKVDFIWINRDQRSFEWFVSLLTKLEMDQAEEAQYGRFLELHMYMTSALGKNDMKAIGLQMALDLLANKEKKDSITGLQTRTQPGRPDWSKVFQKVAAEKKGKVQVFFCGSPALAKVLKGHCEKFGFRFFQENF
Test: compounds shifting NOX5 Amplex Red fluorescence – cell-based, HEK293-NOX5, NOX inhibitor project, primary screen (AID 1161)
Details: HEK293-NOX5, ionomycin, 45 min, higher = more signal
just bin them by z-score: group 1 (below -2), group 2 (-2 to below -0.3), group 3 (-0.3 or more)

compound: c1ccc(-c2cc3c(nc2-c2ccccc2)CCNC3)cc1
class label: group 2
--
compound: CCCC=C(CCC)[C@@H](NP(=O)(c1ccccc1)c1ccccc1)c1ccccc1
class label: group 3
--
compound: CCCC[C@@H]1C[C@H]1[C@@H](NP(=O)(c1ccccc1)c1ccccc1)c1ccc(Cl)cc1
class label: group 3
--
compound: CCOC(=O)[C@H]1CC=C2C(=O)Oc3ccccc3[C@@H]21
class label: group 3
--
compound: COC(=O)[C@H]1[C@H](c2ccccc2)C(=O)[C@]2(O)c3ccccc3O[C@@]12c1ccccc1
class label: group 2
--
compound: C=C(CC1(CNP(=O)(c2ccccc2)c2ccccc2)CC1)c1ccccc1
class label: group 1
--
compound: CCCc1cc2c(n1Cc1ccc(C)cc1)C(C)C1CN(C(=O)c3ccccc3)C(C)(C(=O)OC)C21 (centres undefined)
class label: group 1
--
compound: O=P(c1ccccc1)(c1ccccc1)N1CC2(CC2)CC(O)(c2ccccc2)C1 (centres undefined)
class label: group 1
--
compound: C[C@@H]1OC=C2[C@@H](O)[C@H]3O[C@H]3C(=O)[C@]23[C@H]1[C@H]1C2=C([C@@H](O)[C@H]4O[C@H]4C2=O)[C@@H]3O[C@@H]1C
class label: group 2
